- System: Daphnia magna
- Procedure Text: 48 h LC50 (-log10 mol/L); higher = more toxic
Endpoint: 48 h LC50 (-log10 mol/L)
Please give only the number in your answer, with no unit.

// known answers, use as guide
CC(C)(C)[C@H](O)[C@H](Cc1ccc(Cl)cc1)n1cncn1 : 4.01
CCOP(=S)(OCC)Oc1cc(C)nc(C(C)C)n1 : 8.56
CC(Cl)CCl (stereo unspecified) : 3.34

[in] Give its 48 h LC50 (-log10 mol/L) value. Item: `COc1ccc(NC(=O)N(C)C)cc1Cl`
[out] 3.15

[in] Subsequent entry: `COc1ccccc1`
[out] 3.43

[in] Subsequent entry: `Oc1ccc(-c2ccccc2)cc1`
[out] 4.67

[in] Subsequent entry: `CO/C=C(/C(=O)OC)c1ccccc1Oc1cc(Oc2ccccc2C#N)ncn1`
[out] 6.39

[in] Subsequent entry: `CCC(CC)Nc1c([N+](=O)[O-])cc(C)c(C)c1[N+](=O)[O-]`
[out] 3.73

[in] Subsequent entry: `Cc1ccccc1O`
[out] 3.86

[in] Subsequent entry: `CC/C(=C(/CC)c1ccc(O)cc1)c1ccc(O)cc1`
[out] 5.37

###

- System: Tetrahymena pyriformis
- Procedure Text: 48 h IGC50 (-log10 mol/L); higher = more toxic
Below, each entry is listed alongside its reported 48 h IGC50 (-log10 mol/L).
Please give only the number in your answer, with no unit.

// known answers, use as guide
CCCCOC(N)=O : 2.03
CCC(C)CO (stereo not drawn) : 2.05
CCCC(C)=O : 1.78

[in] Give its 48 h IGC50 (-log10 mol/L) value. Item: `CC=NO`
[out] 1.39

[in] Subsequent entry: `Cc1cc(C)c(O)c(C)c1`
[out] 3.42

[in] Subsequent entry: `CCCCCCCS`
[out] 4.02

[in] Subsequent entry: `CC(=O)CCC(C)=O`
[out] 1.6

[in] Subsequent entry: `CC(=O)c1cccs1`
[out] 2.41

###

Below, each entry is listed alongside its reported 48 h IGC50 (-log10 mol/L).
- System: Tetrahymena pyriformis
- Procedure Text: 48 h IGC50 (-log10 mol/L); higher = more toxic
Please give only the number in your answer, with no unit.

// known answers, use as guide
CCOc1cc(C=O)ccc1O : 3.02
CC(=S)Nc1ccccc1 : 2.99

[in] Give its 48 h IGC50 (-log10 mol/L) value. Item: `Cc1cccc(C)c1[N+](=O)[O-]`
[out] 3.3

[in] Subsequent entry: `C/C=C/c1ccc(O)c(OC)c1`
[out] 3.75

[in] Subsequent entry: `CCCCNC(=S)NCCCC`
[out] 3.86

[in] Subsequent entry: `Cc1cc(O)cc(C)c1Br`
[out] 4.27

[in] Subsequent entry: `O=Cc1cccc(Br)c1`
[out] 3.51

###

- System: Tetrahymena pyriformis
- Procedure Text: 48 h IGC50 (-log10 mol/L); higher = more toxic
Below, each entry is listed alongside its reported 48 h IGC50 (-log10 mol/L).
Please give only the number in your answer, with no unit.

// known answers, use as guide
Nc1c([N+](=O)[O-])ccc2ncccc12 : 3.92
N#CC(C#N)=Cc1ccco1 : 3.94

[in] Kindly state the measured 48 h IGC50 (-log10 mol/L) obtained for `O=[N+]([O-])c1ccc(Br)nc1` with Tetrahymena pyriformis.
[out] 4.07

###

- Test system: Tetrahymena pyriformis
- Procedure Text: 48 h IGC50 (-log10 mol/L); higher = more toxic
Endpoint: 48 h IGC50 (-log10 mol/L)
Please give only the number in your answer, with no unit.

// known answers, use as guide
NC(=O)c1ccco1 : 1.56
O=Cc1ccc(O)c(O)c1O : 3
CC/C=C/CBr : 3.77
C#CC(C)(C)O : 1.69
Oc1ccccc1-c1ccccc1O : 3.88
CCCOC(=O)c1ccccc1C(=O)OCCC : 3.98
O=C(CBr)c1ccc2ccc3cccc4ccc1c2c34 : 5.39
CC(=O)C(C)(C)C : 1.56

[in] Give its 48 h IGC50 (-log10 mol/L) value. Item: `CCOS(=O)OCC`
[out] 2.01

[in] Subsequent entry: `COCCCN`
[out] 1.23

[in] Subsequent entry: `CCCCCCCCOC(=O)CC#N`
[out] 3.9

[in] Subsequent entry: CCC#CCC(O)CC (stereo not drawn)
[out] 2.62

[in] Subsequent entry: `c1ccncc1`
[out] 1.68

###

Below, each entry is listed alongside its reported 96 h LC50 (-log10 mol/L).
- Tested on: Pimephales promelas
- Procedure Text: 96 h LC50 (-log10 mol/L); higher = more toxic

CC(C)(C)c1ccc(Oc2cccc(C=O)c2)cc1 : 5.84
Cc1cc(C)c([N+](=O)[O-])cc1[N+](=O)[O-] : 4.39

In the following, a different compound is considered.
[in] Give its 96 h LC50 (-log10 mol/L) value. Item: `CCCCCCCC/C=C\CCCCCCCC(=O)O`
[out] 3.14

###

- System: Pimephales promelas
- Procedure Text: 96 h LC50 (-log10 mol/L); higher = more toxic
Classify as follows. Reported 96 h LC50 (-log10 mol/L) greater than or equal to 4: Yes. Reported 96 h LC50 (-log10 mol/L) below: No.

N#Cc1cc(Cl)ccc1N : No
CC12CCC(C(Br)C1=O)C2(C)C (configuration not stated) : No
CC(C)[C@H](C(=O)O[C@H](C#N)c1cccc(Oc2ccccc2)c1)c1ccc(Cl)cc1 : Yes

[in] State whether the measured 96 h LC50 (-log10 mol/L) reaches 4, counting equality as reaching it, for CC(N)CN (configuration not stated)
[out] No

[in] Subsequent entry: `O=C(O)c1c(Cl)ccc(Cl)c1Cl`
[out] Yes

[in] Subsequent entry: `O=C(CCl)c1ccc(Cl)cc1`
[out] Yes

[in] Subsequent entry: `CCCSSCCC`
[out] Yes

[in] Subsequent entry: `CCOC(=O)C(Cc1ccccc1)C(=O)OCC`
[out] Yes

[in] Subsequent entry: `CC(=O)Nc1ccccc1O`
[out] No

[in] Subsequent entry: `CC(C)OC(C)C`
[out] No

[in] Subsequent entry: `C=C(C)C(=O)OCCOCC`
[out] No

###

- System: Tetrahymena pyriformis
- Procedure Text: 48 h IGC50 (-log10 mol/L); higher = more toxic
Classify as follows. Reported 48 h IGC50 (-log10 mol/L) greater than or equal to 3: y. Reported 48 h IGC50 (-log10 mol/L) below: n.

Reference set, count: 6
Oc1c(Br)cc(Br)c(O)c1Br : y
CC(C)C=CC=O : y
COC(=O)c1ccc(Cl)cc1 : y
O=C(O)CCCl : n
Cc1[nH]cnc1C=O : n
CCCOC(C)=O : n

[in] State whether the measured 48 h IGC50 (-log10 mol/L) reaches 3, counting equality as reaching it, for `CCCCCOC(=O)c1ccccc1`
[out] y

[in] Subsequent entry: `CC(C)CC#N`
[out] n

[in] Subsequent entry: `COc1cc(C=O)cc(OC)c1O`
[out] y

[in] Subsequent entry: `N#Cc1cccc2ccccc12`
[out] y

[in] Subsequent entry: `Cc1c(O)c(Br)c(Br)c(Br)c1Br`
[out] y

[in] Subsequent entry: `N#CCCCCBr`
[out] n

[in] Subsequent entry: `N#CC(=O)c1ccccc1`
[out] y

[in] Subsequent entry: `O=[N+]([O-])c1cc(Cl)cc(Cl)c1O`
[out] y

[in] Subsequent entry: `CCCNC(N)=S`
[out] n

[in] Subsequent entry: `OCCCCCCCCCCO`
[out] y

[in] Subsequent entry: `CN(C)c1ccccc1`
[out] y

[in] Subsequent entry: `CC(=O)NC(C)(C)C`
[out] n

[in] Subsequent entry: `c1ccc(-c2ccccc2)cc1`
[out] y

[in] Subsequent entry: `CCCOC(=O)CCC`
[out] n

[in] Subsequent entry: `Nc1cc([N+](=O)[O-])cc([N+](=O)[O-])c1`
[out] y

[in] Subsequent entry: `CC(=O)O[C@@H]1C[C@@H]2CC[C@@]1(C)C2(C)C`
[out] y

[in] Subsequent entry: `C=CC(=O)OCCCC`
[out] y

[in] Subsequent entry: `Oc1c(I)cc(I)cc1I`
[out] y

[in] Subsequent entry: COC(=O)C(C)Br (stereo not given)
[out] y

###

- System: Tetrahymena pyriformis
- Procedure Text: 48 h IGC50 (-log10 mol/L); higher = more toxic
Classify as follows. Reported 48 h IGC50 (-log10 mol/L) greater than or equal to 3: 1. Reported 48 h IGC50 (-log10 mol/L) below: -1.

Reference set, count: 3
C#CCCCO : -1
CCCNC(C)=O : -1
Brc1ccc(Br)cc1 : 1

[in] State whether the measured 48 h IGC50 (-log10 mol/L) reaches 3, counting equality as reaching it, for `CCCO`
[out] -1

[in] Subsequent entry: `N#Cc1ccncc1`
[out] -1

[in] Subsequent entry: `O=[N+]([O-])c1ccc(O)c(F)c1`
[out] 1

[in] Subsequent entry: `O=[N+]([O-])c1c(F)cc(F)c(F)c1F`
[out] 1

[in] Subsequent entry: `O=C1C=CC(=O)c2ccccc21`
[out] 1

[in] Subsequent entry: `C=CCOC(=O)CC`
[out] -1
